Numbers sourced from patent US20250091989A1.

Catalogue of IC50 values
test system: ALK; experiment: In vitro transcription-translation (IVTT) reporter assay, ALK test sequence; format: biochemical; conditions: HeLa S3 lysate, sfGFP/mCherry ratio, 2 hrs at 30° C.

Please review the entries below; each comes with its answer.
- Compound: "COc1ccc(C[C@H]2NC[C@H](O)[C@H]2OC(=O)CNc2c(N)c(=O)c2=O)cc1"
  Target Desc: "ALK"
  Value Reported: "< 10 µM"
- Compound: "COc1ccc(C[C@H]2NC[C@H](O)[C@H]2OC(=O)Cc2cscn2)cc1"
  Target Desc: "ALK"
  Value Reported: "< 10 µM"
- Compound: "CC(=O)O[C@@H]1[C@@H](O)CN[C@@H]1Cc1ccc(-c2cn(-c3ccccc3)nn2)cc1"
  Target Desc: "ALK"
  Value Reported: "< 10 µM"
- Compound: "COc1ccc(C[C@H]2NC[C@H](O)[C@H]2OC(=O)C2CN(C(C)=O)C2)cc1"
  Target Desc: "ALK"
  Value Reported: "< 10 µM"
- Compound: "COc1ccc(C[C@H]2NC[C@H](O)[C@H]2OC(=O)Cc2ccc(OC(F)(F)F)cc2)cc1"
  Target Desc: "ALK"
  Value Reported: "10 to 20 µM"
- Compound: "COCCOCC(=O)O[C@@H]1[C@@H](O)CN[C@@H]1Cc1ccc(OC)cc1"
  Target Desc: "ALK"
  Value Reported: "< 10 µM"
- Compound: "COc1ccc(C[C@H]2NC[C@H](O)[C@H]2OC(=O)C2CCS(=N)(=O)CC2)cc1 (some centres unmarked)"
  Target Desc: "ALK"
  Value Reported: "> 30 µM"
- Compound: "COc1ccc(C[C@H]2NC[C@H](O)[C@H]2OC(=O)CC(F)(F)F)cc1"
  Target Desc: "ALK"
  Value Reported: "< 10 µM"
- Compound: "COc1ccc(C[C@H]2NC[C@H](O)[C@H]2OC(=O)COC2CC(F)(F)C2)cc1"
  Target Desc: "ALK"
  Value Reported: "< 10 µM"
- Compound: "CC(=O)O[C@@H]1[C@@H](O)CN[C@@H]1Cc1ccc(-c2cn(Cc3ccccc3)nn2)cc1"
  Target Desc: "ALK"
  Value Reported: "< 10 µM"

// query Suppose we examine the compound COc1ccc(C[C@H]2NC[C@H](O)[C@H]2OC(=O)CC2CC2)cc1 ; what IC50 value has been reported?
// result < 10 µM

// query Suppose we examine the compound CCC1(C(=O)O[C@@H]2[C@@H](O)CN[C@@H]2Cc2ccc(OC)cc2)COC1 ; what IC50 value has been reported?
// result > 30 µM

// query Suppose we examine the compound COc1ccc(C[C@H]2NC[C@H](O)[C@H]2OC(=O)CC2NC(=O)CNC2=O)cc1 (some centres unmarked) ; what IC50 value has been reported?
// result < 10 µM

* * *

Catalogue of IC50 values
test system: HPAF-II; assay: Cell viability (CellTiter-Fluor), HPAF-II; format: cell-based; conditions: Homo sapiens, 24-72 hrs

- Compound: "COc1ccc(C[C@H]2NC[C@H](O)[C@H]2OC(=O)C[C@@H]2CCNC2)cc1"
  Value Reported: "≥ 4000 nM"

// query Suppose we examine the compound COc1ccc(C[C@H]2NC[C@H](O)[C@H]2OC(=O)Cc2cnc[nH]2)cc1 ; what IC50 value has been reported?
// result 250 to 1000 nM

// query Suppose we examine the compound COc1ccc(CC2NCC(O)C2OC(=O)CC2CC2(F)F)cc1 (centres unmarked) ; what IC50 value has been reported?
// result 250 to 1000 nM

// query Suppose we examine the compound COc1ccc(C[C@H]2NC[C@H](O)[C@H]2OC(=O)Cc2cscn2)cc1 ; what IC50 value has been reported?
// result < 250 nM

// query Suppose we examine the compound COc1ccc(C[C@H]2NC[C@H](O)[C@H]2OC(=O)CC2CC(F)(F)C2)cc1 ; what IC50 value has been reported?
// result 250 to 1000 nM
